Reference for the values: ChEMBL document CHEMBL3885881

- Organism: Rattus norvegicus
- experimental.details: DrugMatrix - Regimen: Daily Repeat
- Assay type: toxicity, organism-based, Sprague-Dawley
- Parameters: regimen Daily Repeat, gender Male, age 6-8 weeks
- run.conditions: in vivo, po, 1500 mg/kg, 120 h, tissue Blood, route oral GAVAGE, dose level High, time 5 day, vehicle .5 % CMC
MONOCYTE overview

Would you please look over these solved cases?
- Nc1nc2c(c(=O)[nH]1)N(C=O)C(CNc1ccc(C(=O)N[C@@H](CCC(=O)O)C(=O)O)cc1)CN2 (stereo not given in full) [LEUCOVORIN]: 1.33%
- CCOC(=O)[C@H](CCc1ccccc1)N[C@@H](C)C(=O)N1CCC[C@H]1C(=O)O: 1.67%
- O=c1cc(-c2ccccc2)oc2ccc3ccccc3c12 [BETA-NAPHTHOFLAVONE]: 1.77%

*Q* Fill blank: measured MONOCYTE of the compound CC(C)(Sc1cc(C(C)(C)C)c(O)c(C(C)(C)C)c1)Sc1cc(C(C)(C)C)c(O)c(C(C)(C)C)c1 [PROBUCOL] is ____.
*A* 0.33%

*Q* Next compound up: C[C@@H](O)[C@H]1C(=O)N2C(C(=O)O)=C(S[C@@H]3CN[C@H](C(=O)N(C)C)C3)[C@H](C)[C@H]12 [MEROPENEM]
*A* 0%

###

- Species on record: Rattus norvegicus
- experimental.details: DrugMatrix - Regimen: Daily Repeat
- Assay type: toxicity, organism-based, Sprague-Dawley
- Design: regimen Daily Repeat, gender Male, age 6-8 weeks
- run.conditions: in vivo, po, 0 mg/kg, 120 h, tissue Blood, route oral GAVAGE, dose level Control, time 5 day, vehicle .5 % CMC
assay.endpoint: LEUKOCYTE COUNT

Observe how each entry below is paired with its result.
* CCCCC1C(=O)N(c2ccccc2)N(c2ccccc2)C1=O | 13.02 x10E3/uL
* C[C@@H](O)[C@H]1C(=O)N2C(C(=O)O)=C(S[C@@H]3CN[C@H](C(=O)N(C)C)C3)[C@H](C)[C@H]12 | 17.67 x10E3/uL
* Nc1cccc(Cl)c1 | 7.86 x10E3/uL
* C[C@@H]1CC[C@H]2[C@@H](C)C(=O)O[C@@H]3O[C@@]4(C)CC[C@@H]1[C@]32OO4 | 15.07 x10E3/uL
* CC(C)(Sc1cc(C(C)(C)C)c(O)c(C(C)(C)C)c1)Sc1cc(C(C)(C)C)c(O)c(C(C)(C)C)c1 | 17.67 x10E3/uL
* COc1ccc(/C=C/C(=O)Nc2ccccc2C(=O)O)cc1OC | 17.67 x10E3/uL
* CC(C(=O)O)c1ccc(-c2ccccc2)c(F)c1 (centres undefined) | 17.67 x10E3/uL
* Cc1cnc(C(=O)NCCc2ccc(S(=O)(=O)NC(=O)NC3CCCCC3)cc2)cn1 [GLIPIZIDE] | 15.03 x10E3/uL

Now for another entry.
*Q* For the molecule shown here, CC(=O)O[C@]1(C(C)=O)CC[C@H]2[C@@H]3C=C(Cl)C4=CC(=O)[C@@H]5C[C@@H]5[C@]4(C)[C@H]3CC[C@@]21C [CYPROTERONE ACETATE] , give the reported LEUKOCYTE COUNT.
*A* 15.03 x10E3/uL

###

- Species on record: Rattus norvegicus
- experimental.details: DrugMatrix - Regimen: Daily Repeat
- Assay type: toxicity, organism-based, Sprague-Dawley
- Parameters: regimen Daily Repeat, gender Male, age 6-8 weeks
- run.conditions: in vivo, po, 100 mg/kg, 120 h, tissue Plasma, route oral GAVAGE, dose level Low, time 5 day, vehicle .5 % CMC
// reported ALBUMIN per item
Expressed in G/DL, but write only the number.

Solved entries:
• C#C[C@]1(O)CC[C@H]2[C@@H]3CCC4=Cc5oncc5C[C@]4(C)[C@H]3CC[C@@]21C = 4.07
• Nc1nc2c(c(=O)[nH]1)N(C=O)C(CNc1ccc(C(=O)N[C@@H](CCC(=O)O)C(=O)O)cc1)CN2 (some centres undefined) = 4.3
• CC[C@]1(O)CC[C@H]2[C@@H]3CCC4=CCCC[C@@H]4[C@H]3CC[C@@]21C = 3.67

Now look at this one.
*Q* What value of ALBUMIN has been recorded for this entry: CC=Cc1ccc(O)c(OC)c1
*A* 4.37

###

- Species: Rattus norvegicus
- experimental.details: DrugMatrix - Regimen: Daily Repeat
- Type: toxicity, organism-based, Sprague-Dawley
- Parameters: regimen Daily Repeat, gender Male, age 6-8 weeks
- run.conditions: in vivo, po, 0 mg/kg, 120 h, tissue Blood, route oral GAVAGE, dose level Control, time 5 day, […]
# ABSOLUTE SEGMENTED NEUTROPHIL listing for each entry below
Field format: number, assumed CELLS/uL, no unit text.

• CC(C)Cc1ccc(CC(=O)O)cc1 [IBUFENAC] = 1989.83
• OCCN1CCN(CCCN2c3ccccc3Sc3ccc(C(F)(F)F)cc32)CC1 [FLUPHENAZINE] = 1111.83

Now, please, on to the next molecule.
*Q* Fill in the blank: the reported ABSOLUTE SEGMENTED NEUTROPHIL of C#C[C@]1(O)CC[C@H]2[C@@H]3CCc4cc(O)ccc4[C@H]3CC[C@@]21C [ETHINYL ESTRADIOL] is ____.
*A* 3070.33

###

- Species on record: Rattus norvegicus
- experimental.details: DrugMatrix - Regimen: Daily Repeat
- Assay type: toxicity, organism-based, Sprague-Dawley
- Parameters: regimen Daily Repeat, gender Male, age 6-8 weeks
- run.conditions: in vivo, po, 0 mg/kg, 120 h, tissue Blood, route oral GAVAGE, dose level Control, time 5 day, vehicle .5 % CMC
LYMPHOCYTE by entry:
Write the quantity with the unit trailing the number.

*Q* Record request: LYMPHOCYTE value, item CCOC(=O)[C@H](CCc1ccccc1)N[C@@H](C)C(=O)N1Cc2ccccc2C[C@H]1C(=O)O
*A* 88.33%

###

- Organism: Rattus norvegicus
- experimental.details: DrugMatrix - Regimen: Daily Repeat
- Assay type: toxicity, organism-based, Sprague-Dawley
- Design: regimen Daily Repeat, gender Male, age 6-8 weeks
- run.conditions: in vivo, po, 0 mg/kg, 72 h, tissue Blood, route oral GAVAGE, dose level Control, time 3 day, […]
assay.endpoint: PLATELET COUNT (x10E3/uL)
Form entry: value (x10E3/uL) — number only.

Illustrative cases are given below, each with its answer.
* CC(=O)Nc1nnc(S(N)(=O)=O)s1 [ACETAZOLAMIDE] | 1032
* COc1ncnc(NS(=O)(=O)c2ccc(N)cc2)c1OC [SULFADOXINE] | 1032
* OCCN1CCN(CCCN2c3ccccc3Sc3ccc(C(F)(F)F)cc32)CC1 [FLUPHENAZINE] | 1082.83

Below: the item to evaluate.
*Q* Entry CC(C)Cc1ccc(CC(=O)O)cc1 [IBUFENAC] has what PLATELET COUNT?
*A* 1154.67

###

- Organism: Rattus norvegicus
- experimental.details: DrugMatrix - Regimen: Daily Repeat
- Assay type: toxicity, organism-based, Sprague-Dawley
- Parameters: regimen Daily Repeat, gender Male, age 6-8 weeks
- run.conditions: in vivo, po, 0 mg/kg, 72 h, tissue Blood, route oral GAVAGE, dose level Control, time 3 day, vehicle 100 % SALINE
assay.endpoint: HEMATOCRIT (%)
Please reply with the bare figure in % and do not write the unit itself.

• CC(=O)OCC(CCn1cnc2cnc(N)nc21)COC(C)=O = 36.08

*Q* HEMATOCRIT lookup needed for Cc1cc(CC(=O)O)n(C)c1C(=O)c1ccc(Cl)cc1 [ZOMEPIRAC] , thanks.
*A* 34.28

*Q* Record: Oc1ccccc1O
*A* 34.28

*Q* And for CCCc1nn(C)c2c(=O)[nH]c(-c3cc(S(=O)(=O)N4CCN(C)CC4)ccc3OCC)nc12 ?
*A* 36.08

###

- Organism: Rattus norvegicus
- experimental.details: DrugMatrix - Regimen: Daily Repeat
- Type: toxicity, organism-based, Sprague-Dawley
- Set-up: regimen Daily Repeat, gender Male, age 6-8 weeks
- run.conditions: in vivo, po, 0 mg/kg, 72 h, tissue Blood, route oral GAVAGE, dose level Control, time 3 day, vehicle 100 % WATER
assay.endpoint: NEUTROPHIL (%)
Number in %, nothing else.

Known results for compounds:
- CCCCCCCCCCCCCCCC[n+]1ccccc1.[Br-]: 6.5
- CN1C2CCCC1CC(NC(=O)c1nn(C)c3ccccc13)C2 (configuration not stated) [GRANISETRON]: 9.17
- CCN(CC)CC#CCOC(=O)C(O)(c1ccccc1)C1CCCCC1 (configuration not stated) [OXYBUTYNIN]: 13.83
- Cc1c(N(C)CS(=O)(=O)[O-])c(=O)n(-c2ccccc2)n1C.[Na+] [DIPYRONE SODIUM]: 9

*Q* Need NEUTROPHIL, item Nc1ccc(S(=O)(=O)Nc2nccs2)cc1 [SULFATHIAZOLE]
*A* 9.17

*Q* Now the compound CC[C@H]1OC(=O)[C@H](C)[C@@H](O[C@H]2C[C@@](C)(OC)[C@@H](O)[C@H](C)O2)[C@H](C)[C@@H](O[C@@H]2O[C@H](C)C[C@H](N(C)C)[C@H]2O)[C@](C)(O)C[C@@H](C)CN(C)[C@H](C)[C@@H](O)[C@]1(C)O [AZITHROMYCIN]
*A* 10

*Q* Also need OCCO [ETHYLENE GLYCOL] , thanks.
*A* 7.17

*Q* And O=P1(N(CCCl)CCCl)NCCCO1 (configuration not stated) [CYCLOPHOSPHAMIDE ANHYDROUS] ?
*A* 8

*Q* What about this compound? CCN[C@@H](C)Cc1cccc(C(F)(F)F)c1 [DEXFENFLURAMINE]
*A* 14.5
